Biological target: Dual specificity calcium/calmodulin-dependent 3',5'-cyclic nucleotide phosphodiesterase 1A (Homo sapiens, UniProt P54750)
Sequence (P54750 whole entry): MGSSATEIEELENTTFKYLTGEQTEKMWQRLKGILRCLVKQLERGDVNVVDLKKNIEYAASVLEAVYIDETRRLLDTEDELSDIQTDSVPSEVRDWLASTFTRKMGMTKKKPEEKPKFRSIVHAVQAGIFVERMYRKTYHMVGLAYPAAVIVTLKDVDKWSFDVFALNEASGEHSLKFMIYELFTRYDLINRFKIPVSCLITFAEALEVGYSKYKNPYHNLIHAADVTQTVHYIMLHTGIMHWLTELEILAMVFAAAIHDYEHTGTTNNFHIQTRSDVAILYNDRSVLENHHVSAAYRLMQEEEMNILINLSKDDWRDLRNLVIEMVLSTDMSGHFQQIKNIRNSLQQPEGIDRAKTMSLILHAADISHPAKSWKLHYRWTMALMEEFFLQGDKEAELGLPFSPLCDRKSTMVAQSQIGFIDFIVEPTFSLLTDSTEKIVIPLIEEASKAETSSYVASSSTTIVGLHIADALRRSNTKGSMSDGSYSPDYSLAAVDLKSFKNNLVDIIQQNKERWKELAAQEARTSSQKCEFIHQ
Assay: Inhibition of PDE1A
IC50 overview

1. COc1ccc(C2=Nn3c(nnc3-c3ccccc3OC)SC2)cc1OC	> 50 µM

Entry COc1ccc(C2CNC(=O)C2)cc1OC1CCCC1 (configuration not stated) : reported IC50 = ?
> 50 µM

###

Biological target: Phosphodiesterase 4 (Homo sapiens, UniProt P27815+Q08499+Q07343+Q08493)
Experiment: Inhibition of human PDE4A1A by IMAP technology
TEST READOUT: pIC50
// scale note: pIC50 = -log10(conc_M); give the bare number

1) COc1cccc(C2=Nn3c(nnc3-c3ccccc3O)SC2)c1	4.85
2) COc1ccc(C2=Nn3c(nnc3-c3cc(OC)cc(OC)c3)SC2)cc1	5.02
3) COc1ccc(OC)c(C2=Nn3c(nnc3-c3cc(OC)ccc3OC)SC2)c1	4.92
4) COc1ccc(OC)c(-c2nnc3n2N=C(c2ccccc2OC)CS3)c1	4.71
5) COc1cccc(-c2nnc3n2N=C(c2ccccc2OC)CS3)c1	4.87
6) COc1ccc(C2=Nn3c(nnc3-c3ccc(OC)cc3)SC2)cc1	5.08
7) COc1ccc(-c2nnc3n2N=C(c2ccccc2OC)CS3)cc1OC	5.05
8) COc1cc(OC)cc(-c2nnc3n2N=C(c2cc(OC)ccc2OC)CS3)c1	4.90
9) COc1ccc(-c2nnc3n2N=C(c2c(OC)cccc2OC)CS3)cc1OC	4.85
10) COc1cccc(C2=Nn3c(nnc3-c3cc(OC)ccc3OC)SC2)c1	5.10

Give the measured pIC50 of COc1cc(OC)cc(-c2nnc3n2N=C(c2ccccc2OC)CS3)c1 .
4.87

Look up pIC50: CCOc1ccccc1-c1nnc2n1N=C(c1cccc(OC)c1)CS2
4.95

Form field: reported pIC50 of COc1cccc(C2=Nn3c(nnc3-c3ccccc3C)SC2)c1
5.49

Entry COc1ccc(-c2nnc3n2N=C(c2cc(OC)ccc2OC)CS3)c(OC)c1 has what pIC50?
5.28

Bench note: what pIC50 did COc1ccc(C2=Nn3c(nnc3-c3cc(OC)ccc3OC)SC2)c(OC)c1 show?
5.12

Item under review: COc1ccc(C2=Nn3c(nnc3-c3cccc(OC)c3)SC2)cc1 . Reported pIC50?
4.90

The origin of these recorded values is ChEMBL document CHEMBL1141501.
